system: M14 melanoma; assay: NCI-60 one-dose screen, 48 h (100 = growth as untreated, 0 = no growth, -100 = all killed); settings: 10 µM unless noted
This is part of a sample that, as a whole, favours compounds with a hit. Of some 83,000 tested, about 20% had one in any assay. Active and inactive are the calls of the source. How the source made its calls: active means growth percent below 10; inactive means the rest.
OUTCOME_MEASURE: growth

Below are worked cases with known answers.
1. N#Cc1cccc(-c2nc3ccccn3c2NCCN2CCOCC2)c1
89.9% (inactive)
2. CCCCCOC(=O)c1ccc(NC(=O)CNCC(C)C)cc1
97.4% (inactive)

API: the following record is the query input.
Input: // lookup growth | system=M14 melanoma | key= NC(N)=N/N=C(/c1ccccc1)c1ccc(N)cc1
Output: 104% (inactive)
